Molecular target: T1, TNFR1 (Homo sapiens, UniProt P19438)
T1 chain: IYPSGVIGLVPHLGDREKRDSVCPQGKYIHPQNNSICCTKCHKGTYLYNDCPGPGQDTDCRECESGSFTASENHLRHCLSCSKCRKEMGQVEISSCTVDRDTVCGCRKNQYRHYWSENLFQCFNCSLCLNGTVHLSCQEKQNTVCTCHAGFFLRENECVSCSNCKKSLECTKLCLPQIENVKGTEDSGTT
Experiment: yeast display SC50
# Lookup of reported apparent Kd (screen) keyed by entry
The reply should be a number in nM, with the unit left off.

Some binders with recorded apparent Kd (screen):
K41D (designed binder) SMEEEVEKAAKEYEKKKKEAIEKHLEKLKAKDKEAAERFLDELEEAAKEYAKDEAKTMSEEEAKRRAKKYKEKVLLSELSEEEQKEIKEAEEKLVRTILKYVEEAAK: 0.539
M58C (designed binder) SMEEEVEKAAKEYEKKKKEAIEKHLEKLKAKDKEAAERFLKELEEAAKEYAKDEAKTCSEEEAKRRAKKYKEKVLLSELSEEEQKEIKEAEEKLVRTILKYVEEAAK: 2.73
E49Y (designed binder) SMEEEVEKAAKEYEKKKKEAIEKHLEKLKAKDKEAAERFLKELEEAAKYYAKDEAKTMSEEEAKRRAKKYKEKVLLSELSEEEQKEIKEAEEKLVRTILKYVEEAAK: 26.9
L40A (designed binder) SMEEEVEKAAKEYEKKKKEAIEKHLEKLKAKDKEAAERFAKELEEAAKEYAKDEAKTMSEEEAKRRAKKYKEKVLLSELSEEEQKEIKEAEEKLVRTILKYVEEAAK: 0.446
A51S (designed binder) SMEEEVEKAAKEYEKKKKEAIEKHLEKLKAKDKEAAERFLKELEEAAKEYSKDEAKTMSEEEAKRRAKKYKEKVLLSELSEEEQKEIKEAEEKLVRTILKYVEEAAK: 1.86
Q84F (designed binder) SMEEEVEKAAKEYEKKKKEAIEKHLEKLKAKDKEAAERFLKELEEAAKEYAKDEAKTMSEEEAKRRAKKYKEKVLLSELSEEEFKEIKEAEEKLVRTILKYVEEAAK: 5.84

q: Which apparent Kd (screen) value belongs to L99M (designed binder) SMEEEVEKAAKEYEKKKKEAIEKHLEKLKAKDKEAAERFLKELEEAAKEYAKDEAKTMSEEEAKRRAKKYKEKVLLSELSEEEQKEIKEAEEKLVRTIMKYVEEAAK ?
a: 3

q: Which apparent Kd (screen) value belongs to K18T (designed binder) SMEEEVEKAAKEYEKKKTEAIEKHLEKLKAKDKEAAERFLKELEEAAKEYAKDEAKTMSEEEAKRRAKKYKEKVLLSELSEEEQKEIKEAEEKLVRTILKYVEEAAK ?
a: 1.16

q: Which apparent Kd (screen) value belongs to K48Q (designed binder) SMEEEVEKAAKEYEKKKKEAIEKHLEKLKAKDKEAAERFLKELEEAAQEYAKDEAKTMSEEEAKRRAKKYKEKVLLSELSEEEQKEIKEAEEKLVRTILKYVEEAAK ?
a: 0.446

Data credit: paper PMC12416549
